TEST PROTOCOL: Biodistribution studies in mice (radioiodinated compounds, % ID/g-tissue)
Format: in vivo
COND: mouse, small/large intestine, iv, small/large intestine, 60', tracer level, but MDTA-Na 0.18M and MDTA-NMG 0.19M, read-out: Biodistribution, Sm/Lrg. Intestine 60'
Protocol: All of the new analogs were radiolabeled in order to determine their physical and biological properties. The iodinated compounds were exchange-labeled by heating with Na^125 I in the presence of CuSO4 and Na2 S2 O5 in glacial acetic acid at 135-150° C. for 1 h, followed by HPLC purification using a nucleosil C18 column and CH3 CN--H2 O containing 0.1% TFA as an eluent. […]
Please note: YES applies when tissue uptake at 1 h is 20 %ID/g or greater, and NO applies otherwise.

[
  {
    "MOLECULE SMILES": "CC(=O)N(C)c1c(I)c(C(=O)NCCCCCCC(=O)O)c(I)c(N(C)C(C)=O)c1I",
    "LABEL": "YES"
  },
  {
    "MOLECULE SMILES": "CC(=O)N(C)c1c(I)c(C(=O)Nc2ccc(CCCCCCCCCCCCCCCCCCC(=O)O)cc2)c(I)c(N(C)C(C)=O)c1I",
    "LABEL": "NO"
  }
]

Determine whether measured tissue uptake at 1 h meets or exceeds 20 %ID/g for CC(=O)N(C)c1c(I)c(C(=O)Nc2ccc(CCCCCCC(=O)O)cc2)c(I)c(N(C)C(C)=O)c1I YES

Assess whether reported tissue uptake at 1 h for CC(=O)N(C)c1c(I)c(C(=O)NCC(=O)O)c(I)c(N(C)C(C)=O)c1I sits at 20 %ID/g or higher. NO

I'd appreciate it if you could say whether CC(=O)N(C)c1c(I)c(C(=O)Nc2ccc(CCCCCCCCCCC(=O)O)cc2)c(I)c(N(C)C(C)=O)c1I has tissue uptake at 1 h at least equal to 20 %ID/g. YES

Determine whether this compound has tissue uptake at 1 h no lower than 20 %ID/g: CC(=O)N(C)c1c(I)c(C(=O)NCCCC(=O)O)c(I)c(N(C)C(C)=O)c1I YES

----------
TEST PROTOCOL: Biodistribution studies in mice (radioiodinated compounds, % ID/g-tissue)
Type: in vivo
COND: mouse, small/large intestine, iv, small/large intestine, 60', tracer level, but MDTA-Na 0.18M and MDTA-NMG 0.19M, read-out: Biodistribution, Sm/Lrg. Intestine 60'
ATTRIBUTE MEASURED: tissue uptake at 1 h

Examples from the recorded data:
[
  {
    "MOLECULE SMILES": "CC(=O)N(C)c1c(I)c(C(=O)NCCCCCCCCCCCC(=O)O)c(I)c(N(C)C(C)=O)c1I",
    "ATTRIBUTE MEASURED": "tissue uptake at 1 h",
    "ENDPOINT RESULT": "28 %ID/g"
  },
  {
    "MOLECULE SMILES": "CC(=O)N(C)c1c(I)c(C(=O)Nc2ccc(CC(=O)O)cc2)c(I)c(N(C)C(C)=O)c1I",
    "ATTRIBUTE MEASURED": "tissue uptake at 1 h",
    "ENDPOINT RESULT": "25.4 %ID/g"
  },
  {
    "MOLECULE SMILES": "CC(=O)N(C)c1c(I)c(C(=O)Nc2ccc(CCCCCCCCCCCCCCC(=O)O)cc2)c(I)c(N(C)C(C)=O)c1I",
    "ATTRIBUTE MEASURED": "tissue uptake at 1 h",
    "ENDPOINT RESULT": "43.7 %ID/g"
  }
]

Turning now to a further record.
Field request: tissue uptake at 1 h | item: CC(=O)N(C)c1c(I)c(C(=O)O)c(I)c(N(C)C(C)=O)c1I 13.3 %ID/g

----------
TEST PROTOCOL: Biodistribution studies in mice (radioiodinated compounds, % ID/g-tissue)
Format: in vivo
COND: mouse, small/large intestine, iv, small/large intestine, 5', tracer level, but MDTA-Na 0.18M and MDTA-NMG 0.19M, read-out: Biodistribution, Sm/Lrg. Intestine 5'
# if value of tissue uptake at 5 min reaches 9 %ID/g, tag Fulfilled; if it stays below, tag Not fulfilled

[
  {
    "MOLECULE SMILES": "CC(=O)N(C)c1c(I)c(C(=O)NCCCC(=O)O)c(I)c(N(C)C(C)=O)c1I",
    "LABEL": "Fulfilled"
  },
  {
    "MOLECULE SMILES": "CC(=O)N(C)c1c(I)c(C(=O)Nc2ccc(CCCCCCCCCCCCCCCCCCC(=O)O)cc2)c(I)c(N(C)C(C)=O)c1I",
    "LABEL": "Not fulfilled"
  },
  {
    "MOLECULE SMILES": "CC(=O)N(C)c1c(I)c(C(=O)O)c(I)c(N(C)C(C)=O)c1I",
    "LABEL": "Not fulfilled"
  },
  {
    "MOLECULE SMILES": "CC(=O)N(C)c1c(I)c(C(=O)Nc2ccc(CCCCCCCCCCCCCCC(=O)O)cc2)c(I)c(N(C)C(C)=O)c1I",
    "LABEL": "Not fulfilled"
  },
  {
    "MOLECULE SMILES": "CC(=O)N(C)c1c(I)c(C(=O)NCCCCCCCCCCCC(=O)O)c(I)c(N(C)C(C)=O)c1I",
    "LABEL": "Fulfilled"
  }
]

Turning now to a further record.
Is tissue uptake at 5 min for CC(=O)N(C)c1c(I)c(C(=O)Nc2ccc(CCCCCCC(=O)O)cc2)c(I)c(N(C)C(C)=O)c1I at or above 9 %ID/g? Not fulfilled

----------
TEST PROTOCOL: Biodistribution studies in mice (radioiodinated compounds, % ID/g-tissue)
Format: in vivo
COND: mouse, liver, iv, liver, 5', tracer level, but MDTA-Na 0.18M and MDTA-NMG 0.19M, read-out: Biodistribution, Liver 5'
Listing of entries alongside the reported tissue uptake at 5 min.
The answer consists of two parts: a number and, after it, its unit.

Below: 6 compounds and their reported tissue uptake at 5 min.
[
  {
    "MOLECULE SMILES": "CC(=O)N(C)c1c(I)c(C(=O)NCCCCCCC(=O)O)c(I)c(N(C)C(C)=O)c1I",
    "ENDPOINT RESULT": "9.81 %ID/g"
  },
  {
    "MOLECULE SMILES": "CC(=O)N(C)c1c(I)c(C(=O)NCCCCCCCCCCCC(=O)O)c(I)c(N(C)C(C)=O)c1I",
    "ENDPOINT RESULT": "16.6 %ID/g"
  },
  {
    "MOLECULE SMILES": "CC(=O)N(C)c1c(I)c(C(=O)Nc2ccc(CCCCCCCCCCC(=O)O)cc2)c(I)c(N(C)C(C)=O)c1I",
    "ENDPOINT RESULT": "60.1 %ID/g"
  },
  {
    "MOLECULE SMILES": "CC(=O)N(C)c1c(I)c(C(=O)Nc2ccc(CCCC(=O)O)cc2)c(I)c(N(C)C(C)=O)c1I",
    "ENDPOINT RESULT": "29.4 %ID/g"
  },
  {
    "MOLECULE SMILES": "CC(=O)N(C)c1c(I)c(C(=O)O)c(I)c(N(C)C(C)=O)c1I",
    "ENDPOINT RESULT": "15.4 %ID/g"
  },
  {
    "MOLECULE SMILES": "CC(=O)N(C)c1c(I)c(C(=O)Nc2ccc(CCCCCCCCCCCCCCCCCCC(=O)O)cc2)c(I)c(N(C)C(C)=O)c1I",
    "ENDPOINT RESULT": "24.7 %ID/g"
  }
]

Lab note: next compound to report on.
Quick one: tissue uptake at 5 min of CC(=O)N(C)c1c(I)c(C(=O)NCCCC(=O)O)c(I)c(N(C)C(C)=O)c1I ? 11.9 %ID/g

----------
TEST PROTOCOL: Biodistribution studies in mice (radioiodinated compounds, % ID/g-tissue)
Assay type: in vivo
COND: mouse, kidney, iv, kidney, 5', tracer level, but MDTA-Na 0.18M and MDTA-NMG 0.19M, read-out: Biodistribution, Kidney 5'
Would you please tag the item condition met when its tissue uptake at 5 min is 6 %ID/g or above, and condition not met when it is below?

Solved entries (count: 5):
[
  {
    "MOLECULE SMILES": "CC(=O)N(C)c1c(I)c(C(=O)Nc2ccc(CCCC(=O)O)cc2)c(I)c(N(C)C(C)=O)c1I",
    "LABEL": "condition not met"
  },
  {
    "MOLECULE SMILES": "CC(=O)N(C)c1c(I)c(C(=O)Nc2ccc(CCCCCCCCCCCCCCCCCCC(=O)O)cc2)c(I)c(N(C)C(C)=O)c1I",
    "LABEL": "condition not met"
  },
  {
    "MOLECULE SMILES": "CC(=O)N(C)c1c(I)c(C(=O)Nc2ccc(CCCCCCCCCCC(=O)O)cc2)c(I)c(N(C)C(C)=O)c1I",
    "LABEL": "condition not met"
  },
  {
    "MOLECULE SMILES": "CC(=O)N(C)c1c(I)c(C(=O)NCCCCCCCCCCCC(=O)O)c(I)c(N(C)C(C)=O)c1I",
    "LABEL": "condition not met"
  },
  {
    "MOLECULE SMILES": "CC(=O)N(C)c1c(I)c(C(=O)O)c(I)c(N(C)C(C)=O)c1I",
    "LABEL": "condition met"
  }
]

Evaluate CC(=O)N(C)c1c(I)c(C(=O)NCCCC(=O)O)c(I)c(N(C)C(C)=O)c1I : tissue uptake at 5 min at minimum 6 %ID/g? condition met
